Assay: chemical genetic growth profiling, strain panel (AID 1159580);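 further: tested at 20 µM; growth read once vehicle control cultures reached saturation at 30 °C; 1 = growth at the plate median or of vehicle wells; lower values mean less growth of the strain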
Settings: S. cerevisiae deletion strains, growth OD, locus YDR334W, strain swr1, hits give low values
The campaign covered roughly 5,500 compounds. About 2,000 (36%) were called active. About 18% were inconclusive and are not listed. Some of the results follow.
Reported endpoint: normalized growth
Keep it simple and answer with nothing but the number.

As a guide, the following entries are already answered.
Item C[C@]12CCC(=O)C=C1CCC1C2C(=O)C[C@@]2(C)C1CC[C@]2(O)C(=O)CO (some centres not stated) : provide normalized growth 1.01

Item "Cc1ccc(N(CC2=NCCN2)c2cccc(O)c2)cc1" : provide normalized growth 1.04

Item "NC[C@H]1O[C@H](O[C@H]2[C@H](O)[C@@H](O[C@H]3O[C@H](CO)[C@@H](O)[C@H](N)[C@H]3O)[C@H](N)C[C@@H]2N)[C@H](N)C[C@@H]1O" : provide normalized growth 1.02

Item "OCc1c[nH]c2ccccc12" : provide normalized growth 1

Item "CCCc1nc2c(C)cc(-c3nc4ccccc4n3C)cc2n1Cc1ccc(-c2ccccc2C(=O)O)cc1" : provide normalized growth 1.02

Item CC(=O)O[C@H]1CC[C@]2(C)C3CC(=O)[C@]4(C)C(C(C)=O)=CCC4C3CC[C@H]2C1 (some centres not stated) : provide normalized growth 1.01

Item "c1ccc([C@H]2CN3CCSC3=N2)cc1" : provide normalized growth 0.984

Item "O=C(CCBr)N1CCN(C(=O)CCBr)CC1" : provide normalized growth 1.02

Item "Cc1cc(=O)n(-c2ccccc2)n1C" : provide normalized growth 0.986

Item CC(=O)OCC(=O)[C@@]1(O)CCC2C3CCC4=CC(=O)CC[C@]4(C)C3[C@@H](O)C[C@@]21C (some centres not stated) : provide normalized growth 1.01

Continuing:
Item C#C[C@]1(O)CCC2C3CCC4=Cc5oncc5C[C@]4(C)C3CC[C@@]21C (some centres not stated) : provide normalized growth 0.965

Item NC[C@H]1O[C@H](O[C@H]2C(O[C@@H]3O[C@H](CO)[C@@H](O)[C@H]3O)[C@@H](O)[C@H](N)C[C@@H]2N)[C@H](N)[C@@H](O)[C@@H]1O (some centres not stated) : provide normalized growth 0.997

Item "Cc1cc(C(C)(C)C)c(O)c(C)c1CC1=NCCN1" : provide normalized growth 1.01

Item "Cc1cc(C(C)(C)C)cc(C)c1CC1=NCCN1" : provide normalized growth 0.993

Item "CC(=O)Oc1cccc2c1C(=O)c1c(OC(C)=O)cc(C(=O)O)cc1C2=O" : provide normalized growth 0.957

Item C#CC1(O)CCC2C3CCC4=CC(=O)CCC4(C)C3CCC21C (configuration not stated) : provide normalized growth 0.954

* * *

Experiment: chemical genetic growth profiling, strain panel (AID 1159580);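 further: tested at 20 µM; growth read once vehicle control cultures reached saturation at 30 °C; 1 = growth at the plate median or of vehicle wells; lower values mean less growth of the strain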
Settings: S. cerevisiae deletion strains, growth OD, locus YMR129W, hits give low values
The campaign covered roughly 5,500 compounds. About 2,000 (36%) were called active. Another 18% or so got no clear call; they are omitted. This is one part of the list.
Reported endpoint: normalized growth
Keep it simple and answer with nothing but the number.

As a guide, the following entries are already answered.
Item "COc1ccc2c(=O)ccoc2c1" : provide normalized growth 1.02

Item "Cc1cc(C(C)(C)C)c(O)c(C)c1CC1=NCCN1" : provide normalized growth 1

Item "Cc1ccc(N(CC2=NCCN2)c2cccc(O)c2)cc1" : provide normalized growth 1

Item C=C(C)[C@@H]1CC[C@]2(CO)CC[C@]3(C)[C@H](CCC4[C@@]5(C)CC[C@H](O)C(C)(C)C5CC[C@]43C)C12 (stereo partly specified) : provide normalized growth 1

Item "COc1c2occc2c(OC)c2c(=O)cc(C)oc12" : provide normalized growth 1

Could you now look at the following compound, please?
Item "NCCc1cc(O)c(O)cc1O" : provide normalized growth 0.991
